# assay_target: Replicase polyprotein 1ab (Severe acute respiratory syndrome coronavirus 2) (UniProt P0DTD1)
# experiment_summary: Inhibition of SARS-CoV-2 3CL-Pro proteolytic cleavage of a dual-labeled substrate by FRET.
# Type: functional
# Design: assay stage
Write down the outcome that applies. Available outcomes: TRUE for active, FALSE for inactive

NC(Cc1cc(O)c(O)cc1O)C(=O)O (racemic) ... FALSE
O=c1cc(-c2ccccc2)oc2cc(O)c(O)c(O)c12 ... FALSE
CCN1CCN(C(c2ccc(C(F)(F)F)cc2)c2ccc3cccnc3c2O)CC1 (stereo not given) ... TRUE
COC(=O)CC[C@H](NC(=O)[C@H](CC(=O)OC)NC(=O)OCc1ccccc1)C(=O)N[C@H](C(=O)N[C@@H](CC(=O)OC)C(=O)CF)C(C)C ... TRUE

Q: For COc1ccnc(C[S+]([O-])c2nc3cc(OC(F)F)ccc3[nH]2)c1OC (stereo not given) , what call appears in the results of this test?
Result: FALSE

---

# assay_target: Replicase polyprotein 1ab (Severe acute respiratory syndrome coronavirus 2) (UniProt P0DTD1)
# experiment_summary: Inhibition of SARS-CoV-2 3CL-Pro proteolytic cleavage of a dual-labeled substrate by FRET.
# Assay type: functional
# Parameters: assay stage
Peptide text beside a SMILES is read from it. * marks the point of attachment. Cbz = O=C(OCc1ccccc1)*
Write down the outcome that applies. Available outcomes: class 1 (active), class 0 (inactive)

CC(C)C[C@@H](C=O)NC(=O)[C@H](CC(C)C)NC(=O)[C@H](CC(C)C)NC(=O)OCc1ccccc1 (Cbz-Leu-Leu-Leu-aldehyde) ... class 0
CC(C)(C)OC(=O)NCCc1nnc(S(=O)(=O)Cc2ccc(Cl)cc2Cl)o1 ... class 1

Q: For Cc1cc(-c2ccc(/N=N/c3ccc4c(S(=O)(=O)O)cc(S(=O)(=O)O)c(N)c4c3O)c(C)c2)ccc1/N=N/c1ccc2c(S(=O)(=O)O)cc(S(=O)(=O)O)c(N)c2c1O , what call appears in the results of this test?
Result: class 0

Q: For Cn1sc(=O)n(Cc2ccccc2)c1=O , what call appears in the results of this test?
Result: class 1

Q: For COc1ccc2[nH]c3c(S)ncnc3c2c1 , what call appears in the results of this test?
Result: class 0

Q: For O=c1c(O)cccc2cc(O)c(O)c(O)c12 , what call appears in the results of this test?
Result: class 0

Q: For Nc1nc(S)c2ncn(C3OC(CO)C(O)C3O)c2n1 (stereo unspecified) , what call appears in the results of this test?
Result: class 1

Q: For O=C(O)[C@@H](S)[C@@H](S)C(=O)O , what call appears in the results of this test?
Result: class 0

Q: For O=C(NC(=S)N1CCCc2ccccc21)c1ccccc1 , what call appears in the results of this test?
Result: class 0

Q: For Cc1ccc(-n2sc(=O)n(Cc3ccc(F)cc3)c2=O)cc1 , what call appears in the results of this test?
Result: class 1

Q: For Sc1nnc(Nc2ccccc2)s1 , what call appears in the results of this test?
Result: class 1

Q: For O=C(O)c1c(Cl)c(Cl)c(Cl)c(Cl)c1-c1c2cc(I)c(=O)c(I)c-2oc2c(I)c(O)c(I)cc12 , what call appears in the results of this test?
Result: class 0

Q: For COc1ncc(-c2ccc3nccc(-c4ccnnc4)c3c2)cc1NS(=O)(=O)c1ccc(F)cc1F , what call appears in the results of this test?
Result: class 0

Q: For O=c1c2ccccc2sn1-c1ccccc1 , what call appears in the results of this test?
Result: class 1
